Origin of measurements: patent US11492335B2

Target: recombinant human MAO-B (monoamine oxidase-B) (Homo sapiens, UniProt P27338)
Construct: purchased Sigma-Aldrich
Sequence (P27338 whole entry): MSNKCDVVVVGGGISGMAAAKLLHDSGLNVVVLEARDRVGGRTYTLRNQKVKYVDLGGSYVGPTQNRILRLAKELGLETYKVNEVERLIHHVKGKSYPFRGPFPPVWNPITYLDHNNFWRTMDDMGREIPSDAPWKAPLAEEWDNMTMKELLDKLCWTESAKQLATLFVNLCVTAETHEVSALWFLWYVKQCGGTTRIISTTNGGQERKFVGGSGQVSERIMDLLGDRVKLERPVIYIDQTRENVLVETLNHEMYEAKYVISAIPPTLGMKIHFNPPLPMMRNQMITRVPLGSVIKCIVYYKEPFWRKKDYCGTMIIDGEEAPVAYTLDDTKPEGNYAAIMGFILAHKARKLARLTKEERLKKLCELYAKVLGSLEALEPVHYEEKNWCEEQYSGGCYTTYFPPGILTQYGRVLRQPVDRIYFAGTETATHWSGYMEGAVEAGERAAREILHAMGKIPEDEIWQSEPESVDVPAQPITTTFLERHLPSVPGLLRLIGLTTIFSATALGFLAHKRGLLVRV
Assay: Activity on recombinant human MAO-B, Amplex Red method, 1 mM benzylamine substrate
Format: biochemical
Conditions: 1 mM benzylamine, read-out: Inhibitory Activity (IC50, nM) MAO-B
Counter-ions that a name gives are not always drawn.
MEASURED_ATTRIBUTE: log10(IC50) (log10 of the value in nM)

COMPOUND: NC/C(=C/F)Cn1ncn(-c2ccc(OCc3ccccc3)cc2)c1=O
log10(IC50): 0.90
//
COMPOUND: Cc1cc(-c2ccc3c(c2)OCO3)cnc1-n1cnn(C/C(=C/F)CN)c1=O [Example 150, hydrochloride]
log10(IC50): 2.23
//
COMPOUND: NC/C(=C\F)Cn1ncn(-c2ccc(F)c(F)c2)c1=O [Example 10, hydrochloride]
log10(IC50): 3.21
//
COMPOUND: NC/C(=C/F)Cn1ncn(-c2ncc(Br)cc2F)c1=O [Example 35, hydrochloride]
log10(IC50): 2.70
//
COMPOUND: Cc1cc(-n2cnn(C/C(=C/F)CN)c2=O)cnc1-c1ccc(-c2nc[nH]n2)cc1
log10(IC50): 2.99
//
COMPOUND: NC/C(=C/F)Cn1ncn(-c2ccc(Br)nc2)c1=O
log10(IC50): 1.23
//
COMPOUND: Cc1cc(-c2ccc3sc(N)nc3c2)ncc1-n1cnn(C/C(=C/F)CN)c1=O
log10(IC50): 2.79
//
COMPOUND: COc1cc(-n2cnn(C/C(=C/F)CN)c2=O)ccc1Br [Example 18, hydrochloride]
log10(IC50): 1.76
//
COMPOUND: Cc1cc(-c2cccc(-c3noc(C(C)C)n3)c2)cnc1-n1cnn(C/C(=C/F)CN)c1=O [Example 143, hydrochloride]
log10(IC50): 3.73
//
COMPOUND: CC(C)Sc1ccc(-c2cccc(-n3cnn(C/C(=C/F)CN)c3=O)c2)cc1 [Example 52, hydrochloride]
log10(IC50): 3.56
//
COMPOUND: NC/C(=C\F)Cn1ncn(-c2ccc(Br)cc2)c1=O
log10(IC50): 1.93
//
COMPOUND: NC/C(=C\F)Cn1ncn(-c2ccc(Br)cn2)c1=O [Example 30, hydrochloride]
log10(IC50): 3.23
//
COMPOUND: NC/C(=C\F)Cn1ncn(-c2cccc(-c3cccc4[nH]ccc34)c2)c1=O [Example 98, hydrochloride]
log10(IC50): 3.97
//
COMPOUND: Cc1cc(-n2cnn(C/C(=C/F)CN)c2=O)cnc1-c1cccc(-c2nc[nH]n2)c1
log10(IC50): 3.78
//
COMPOUND: Cc1cc(-c2ccc(-c3nc[nH]n3)cc2)ncc1-n1cnn(C/C(=C/F)CN)c1=O
log10(IC50): 2.66
//
COMPOUND: NC/C(=C\F)Cn1ncn(-c2ccc(Br)nc2)c1=O [Example 25, hydrochloride]
log10(IC50): 3.36
//
COMPOUND: NC/C(=C\F)Cn1ncn(-c2cccc(-c3ccc4c(c3)NC(=O)CO4)c2)c1=O [Example 103, hydrochloride]
log10(IC50): 3.08
//
COMPOUND: COc1ccc(-c2cccc(-n3cnn(C/C(=C/F)CN)c3=O)c2)cn1 [Example 83, hydrochloride]
log10(IC50): 3.39
//
COMPOUND: Cc1cc(-c2ccc(-c3noc(C(C)C)n3)cc2)cnc1-n1cnn(C/C(=C/F)CN)c1=O [Example 142, hydrochloride]
log10(IC50): 3.67
//
COMPOUND: NC/C(=C\F)Cn1ncn(-c2cccc(-c3ccc(N4CCOCC4)nc3)c2)c1=O [Example 86, hydrochloride]
log10(IC50): 3.09
//
COMPOUND: NC/C(=C/F)Cn1ncn(-c2ccc(F)c(F)c2)c1=O
log10(IC50): 1.93
//
COMPOUND: CC(=O)N1CCN(c2ccc(-c3cccc(-n4cnn(C/C(=C/F)CN)c4=O)c3)cc2)CC1 [Example 72, hydrochloride]
log10(IC50): 3.16
